# System: DU-145 prostate
# Assay Comment: NCI-60 one-dose screen, 48 h
# Condition Parameters: 10 µM unless noted
This is part of a sample that, as a whole, favours compounds with a hit. Of some 83,000 tested, about 20% had one in any assay. Activity calls are given as the source filed them. Rule for the calls: active = growth percent below 10; inactive = the rest.
Permitted responses: active, inactive

{"columns": ["Compound", "Class"],
 "data": [
  ["Cc1cc(C)nc(SC2=C(Nc3cc(Cl)ccc3O)C(=O)N(Cc3ccccc3)C2=O)n1", "inactive"]
]}

Request: Hi, do you know how `Cc1cc2nc3[nH]c4ccccc4c3nc2cc1C` came out in this test?
Result: inactive

====

growth values for the molecules below.
# Tested on: RPMI-8226 leukemia
# Assay Comment: NCI-60 one-dose screen, 48 h (100 = growth as untreated, 0 = no growth, -100 = all killed)
# Condition Parameters: 10 µM unless noted
This is part of a sample that, as a whole, favours compounds with a hit. Of some 83,000 tested, about 20% had one in any assay.
Entry rule: numbers only, all in %.

Request: // lookup growth for `Cn1c(=O)[nH]c(=O)c2nc(CCC(=O)NCCC(=O)O)c(=O)[nH]c21`
Result: 111

Request: // lookup growth for `CC1=C/C(=C(\c2ccc(N(C)C)cc2)c2ccc([N+](C)(C)C)cc2)C=CC1=[N+](C)C`
Result: 2.54

Request: // lookup growth for `C=C1c2nc3ccccc3n2C=C(c2ccc(Cl)cc2)N1Cc1ccc(OC)cc1`
Result: 30.9

Request: // lookup growth for `CC[C@]1(O)C[C@@H]2CN(CCc3c([nH]c4ccccc34)[C@@](C(=O)OC)(c3cc4c(cc3OC)N(C)[C@H]3[C@@](O)(C(N)=O)[C@H](O)[C@]5(CC)[C@@H]6C[C@@H]6CN6CC[C@]43[C@@H]65)C2)C1`
Result: 13.8

Request: // lookup growth for `CCCN1CCN(c2ccc3nc(-c4ccc5nc(-c6ccc(OCC)cc6)[nH]c5c4)[nH]c3c2)CC1`
Result: -38.8

Request: // lookup growth for `Brc1ccc(-c2csc(Nc3ccccn3)n2)cc1`
Result: 68

Request: // lookup growth for `COc1ccc(/C=C2\Oc3cc(OCCCCN4CCCC4)ccc3C2=O)cc1`
Result: 80.7

Request: // lookup growth for `O=C(CCCCC(=O)N/N=C\c1ccccc1O)N/N=C\c1ccccc1O`
Result: 50.2

Request: // lookup growth for `Cc1nn(-c2ccc(F)cc2)c2ncnc(Oc3ccc(NC(=O)Nc4ccc(Cl)c(C(F)(F)F)c4)cc3)c12`
Result: 98.7

====

# System: SK-OV-3 ovarian
# Assay Comment: NCI-60 one-dose screen, 48 h (100 = growth as untreated, 0 = no growth, -100 = all killed)
# Condition Parameters: 10 µM unless noted
This is part of a sample that, as a whole, favours compounds with a hit. Of some 83,000 tested, about 20% had one in any assay.
Lab note: compare growth against 40%. Equal or greater, write criterion met. Smaller, write criterion not met.

{"columns": ["Compound", "Tested System", "Class"],
 "data": [
  ["COc1cc2c(cc1-c1c(C)noc1C)ncc1nc(C3CCCCC3)n([C@H](C)COC(F)F)c12", "SK-OV-3 ovarian", "criterion not met"],
  ["CC(C)C1=C[C@@]23CC[C@@H]4[C@](C)(CCC[C@@]4(C)C(=O)N4CCCNCC4)[C@H]2C[C@@H]1[C@H]1C(=O)CCC(=O)[C@H]13", "SK-OV-3 ovarian", "criterion met"],
  ["COc1ccc(-c2nnc(SCC(=O)c3ccc(Cl)cc3)o2)cc1", "SK-OV-3 ovarian", "criterion met"],
  ["N#CN1CCC[C@H]1C(=O)N1CCc2c(-c3[nH]nc4ncccc34)cccc21", "SK-OV-3 ovarian", "criterion not met"],
  ["CCOc1cc2ncc(C#N)c(Nc3ccc(OCc4cccc(F)c4)c(Cl)c3)c2cc1NC(=O)CCCCC1CCSS1 (centres undefined)", "SK-OV-3 ovarian", "criterion met"],
  ["CCn1c(Cc2ccccc2Nc2c(Cl)cccc2Cl)nnc1SCC(=O)NN1C(=O)/C(=C/c2cc(OC)c(O)c(OC)c2)SC1=S", "SK-OV-3 ovarian", "criterion not met"]
]}

Request: Determine whether measured growth meets or exceeds 40% for Cc1cc(N2CCN(C)CC2)nc(NC2CCCC(Nc3ccnc4cc(Cl)ccc34)C2)n1 (centres undefined)
Result: criterion not met

Request: Determine whether measured growth meets or exceeds 40% for `O=S(=O)(Nc1ccc(Cl)c(F)c1)c1ccc(-c2cnc(C3CC3)o2)cc1`
Result: criterion not met

Request: Determine whether measured growth meets or exceeds 40% for `COc1cc2nc(N3CCCC3)nc(NCc3ccccc3)c2cc1OC`
Result: criterion met
